PROTOCOL DETAILS: yeast display, Sf9 membrane polyspecificity reagent, FACS + sequencing; frameworks hold sequencing errors
QUANTITY: polyreactivity (PSR sort gate)

The following sequences have reported results that may help.
>>> result_value("QVQLVESGVGLVQAGGSLRLSCAASGFTFPYYAMGWYIQAPGKERELVAAISSGGRTNYADSVKGRFTISRDNAKNTVYLQMNSLKPEDTAVYDCATRSYVFAWEFNYWGQVTQVTVSS")
"high polyreactivity"
>>> result_value("QVQLVESGGGLVQAGGSLRLSCAASGFYYGMGWYRQAPGKERELVAAISRGGSTYYADSVKGRFTISRDNAKNTVYLQMNSLKPEDTAVYYCAATYRSLYGSRMGYWGQGTQVTVSS")
"high polyreactivity"
>>> result_value("QVQLVDSGGGLVQAGGSLRLSCAASGRTIGFYAMGWYRQAPGKERELVAAINRSGDSTYYADSVKGRFTISRDNAKNTVYLQMNSLKPEDTAVYYCAASYGYRYEYWGQGTQVTVSS")
"high polyreactivity"
>>> result_value("QVQLVESGGGLVQAGGSLRISCAASGFTFGVYAMGWYRPAPGKEREFVASISFSGGRTYYSDSVKGRFTISRDNAKNTVYLQMNSLKPEDTAVYYCAKRWSADDYWGQGTQVTVSS")
"high polyreactivity"
>>> result_value("QVQLVESWGGLVQAGRSLRLSCAASGRTFYNYAMGWYRQAPGKERELVAAITRGGSTYYADSVKGRFTISRDNAKNTVYLHMNSLKPEDTAVYFCNAKYIKGRDWGQGTQVTVSS")
"high polyreactivity"

// each sequence listed below needs its polyreactivity (PSR sort gate)
1. QVQLVESGGGLVQAGGSLRLSCAASGRIFPYYAMGRYRQAPGKERELVARITRNGGTTYYADSVKGRFTISRDNAKNTVYLQMNSLKPEDTAVYYCAATYSVPYYRSWPEYDYWGQGTQVTVSS
2. PVQLVESGGGLVQAGGSLSLICAASGRIFYMYAMRCYRPAPAKERELVAAITWSGGSTTYADSVKGRFTISRDNAKNTVYLQMNSLKPEDTSVYYCNAEGWIFPSFSPMDYWGQGTQVTVSS

*A*
1: high polyreactivity; 2: low polyreactivity

// each sequence listed below needs its polyreactivity (PSR sort gate)
1. QVQLVESGGGLVQAGGSLRLSCAASGSIFRWYAIGWYRQAPGKERELVATICWSTGTTYYADSVKGRFTISRDNAKNTVYLQMNSLKPEDTAVYYCAKVSTYRSSYSLKSGYGNDYWGQGTQVTVSS
2. QVQLVESGGGLVQAGGSLRLSCAASGRIFTSNAMGWYRQAPGKEREFVAAITKRGGRTYYADSVKGRFTISRDNAKNTVYLQMNSLKPEDTAVYYCAAGATGTSYYGGDYWGQGTQVTVSS
3. QVQLVESGGGLVQAGGSLRLSCAASGSIFSTYAMGWYRQAPGKERELVAAITSDGTYADSVKGRFTISRDNAKNTVYLQLNSLKPEDTAVYYCNKDIKSATDSYHYEDDYWGQGTQVTVSS
4. QFQLVESGGGLVQAGGSLLLSCAASGSIFAPYDMGWYRQEPGKERELVAAISSSGGSTYYEDSVKGRFTISRDNSKNTVYLHMNSQKPEDTAVYYCDPEPYHGLYDYSGQGTQVTVSS

*A*
1: low polyreactivity; 2: high polyreactivity; 3: low polyreactivity; 4: low polyreactivity

Provenance of the data: the nanobody polyreactivity screen of Harvey et al. (2022)
